Tested on: E. coli strains
Assay: CLSI overnight reference method, broth microdilution MIC
Format: cell-based
Settings: E. coli strain Clinical Sample 2; unit assumed
result-type: MIC (CLSI Ref) (µg/mL)

| smiles-repr | result-type | scale-unit | sign | reported |
| --- | --- | --- | --- | --- |
| CN(C)[C@@H]1C(=O)C(C(N)=O)=C(O)[C@@]2(O)C(=O)C3=C(O)c4c(O)cccc4[C@@](C)(O)[C@H]3C[C@@H]12 | MIC (CLSI Ref) | µg/mL | > | 32 |
| C[C@@H](O)[C@H]1C(=O)N2C(C(=O)O)=C(S[C@@H]3CN[C@H](C(=O)N(C)C)C3)[C@H](C)[C@H]12 | MIC (CLSI Ref) | µg/mL | < | 0.06 |
| NCC[C@H](O)C(=O)N[C@@H]1C[C@H](N)[C@@H](O[C@H]2O[C@H](CN)[C@@H](O)[C@H](O)[C@H]2O)[C@H](O)[C@H]1O[C@H]1O[C@H](CO)[C@@H](O)[C@H](N)[C@H]1O | MIC (CLSI Ref) | µg/mL | = | 4 |
| CC(C)(O/N=C(\C(=O)N[C@@H]1C(=O)N2C(C(=O)[O-])=C(C[n+]3ccccc3)CS[C@H]12)c1csc(N)n1)C(=O)O | MIC (CLSI Ref) | µg/mL | = | 2 |
| CO/N=C(\C(=O)N[C@@H]1C(=O)N2C(C(=O)O)=C(CSc3nc(=O)c(=O)[nH]n3C)CS[C@H]12)c1csc(N)n1 | MIC (CLSI Ref) | µg/mL | = | 2 |
| C[C@H]1COc2c(N3CCN(C)CC3)c(F)cc3c(=O)c(C(=O)O)cn1c23 | MIC (CLSI Ref) | µg/mL | < | 0.06 |
